- test-system: U1A N15A (UniProt P09012 10-89, N15A)
- Sequence (P09012 10-89 N15A): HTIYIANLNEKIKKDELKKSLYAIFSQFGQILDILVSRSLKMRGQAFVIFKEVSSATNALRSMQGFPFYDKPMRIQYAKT
- experiment-summary: fluorescence polarization

- binder: "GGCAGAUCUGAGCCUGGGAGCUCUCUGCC (structured_RNA) [TAR RNA]"
  Kd / µM: 11.7
